This collection of values is drawn from the nanobody polyreactivity screen of Harvey et al. (2022).

experiment: yeast display, Sf9 membrane polyspecificity reagent, FACS + sequencing; frameworks hold sequencing errors
measured attribute: polyreactivity (PSR sort gate)

The cases that follow already have their polyreactivity (PSR sort gate) on record.
[[record]]
primary_sequence = "QVQHVESGGGLVQAGGSLRLSCAASGRTFHQNAMGWYRQAPGKERELVATITAGSGSTYYADSVKGRFTISGDNAKNTVYLQMNSVKPEDTAVYFWNAKWTLYQSDYWYYIYDYCGQGTQVTVSS"
recorded_value = "low polyreactivity"

[[record]]
primary_sequence = "QVQLVESGGGLVQAGGSLRLSCAASGIIFHGYAMGWYRQAPGKERELVAAITNSGGRTYYADSVKGRFTISRDNAKNTVYLQMNSLKPEDTAVYYCAADGHKYRMDYWGQGTQVTVSS"
recorded_value = "low polyreactivity"

[[record]]
primary_sequence = "QVQLVESGGGLVQAGGSLRLSCAASGSIFRIYAMGWYRQAPGQESELVAAINAGGGRTYYADSVKGRFTISRDNAKNTVYLQMNSLKPEDTAVYYCAARHTEYRQESLYYWGQGTQVTVSS"
recorded_value = "low polyreactivity"

[[record]]
primary_sequence = "QVQLVESGGGLVQAGGSLRLSCAASGSIFYENTMGWYRQAPGKEREFVAAISRSGGSTYYADSEKGRFTISRDNAKNTVYLQMNSLKPEDTAVYYCAAKSRRYHHEYYYWGQGTQVTVSS"
recorded_value = "high polyreactivity"

[[record]]
primary_sequence = "QVQLVESRGGLVQAGGSLRLSCAASGRTFSNAMGWYRQAPGNERELVADISSGGSTNYADSVKGRFTISRDNAKNTVYLQMNSLKPEDTAVYYCAAVSGSRYGYSDDYWGQGTQVTVSS"
recorded_value = "low polyreactivity"

[[record]]
primary_sequence = "QVQLVESGGGLVQAGGSLRLSCAASGSTFSYAMGWYRQAPGKERELVAAITTSGGSTYYADSVKGRFTISRDNAKNTVYLQMNSLKPVDTAVDYCARERYYRRFYRPRRYDYWGQGTQVTVSS"
recorded_value = "low polyreactivity"

[[record]]
primary_sequence = "QVQLVESGGGLVQAGGSLRLSCAASRSTFRDNAMGWYRQAPGKVRELVAGITRGGITNYADSVKGRYTISRDNAKNTVYLQMNSLKPEDTEVYYFAAEVTGTYYDYDYWGQGTQVTVSS"
recorded_value = "low polyreactivity"

[[record]]
primary_sequence = "QVQLVESGGGLVQAGGSLRLICAASGNIFTQYGMGWYRQAPGKERELVAAISRRGGSTYYADSVKGRFTISRDNAKNTVYLQMNSLKPEDTAVYYCARRTNRPPWGFEYWGQGTQVTVSS"
recorded_value = "high polyreactivity"

[[record]]
primary_sequence = "HAQLQESGGGLVQAGGSLRRSCAASGSMFRFSGMGWYRRAPGKERELVASIGFGSITYYADRVKGRFTISRDNANHTVYLQMNTLKPEDTAVYYCAVQVQDESWLDYWGQGTQVTVSC"
recorded_value = "low polyreactivity"

[[record]]
primary_sequence = "QVQLVESGGGLVQAGGSLRLSCAASGFIFEYNTMGWYRQAPGKERELVAAISRRGGSTYYADSVKGRFTISRDNAKNTVYLQMKSLKPEDTAVYYCATDPGARVHYPTGDYWGQGTQVTVSS"
recorded_value = "high polyreactivity"


Summary for this sequence, "QVQLVETGGGLVQAGGSLRLSCAASGRTFDGNVMGWYRQEPGKERELGAAISDRGTRTYYADSVKGRFTISRDNAKNTVYLQMNSLKPEDTAVYYCATRVYFSPYRYDYWGQGTQGTVSS" : polyreactivity (PSR sort gate) is high polyreactivity

Summary for this sequence, "QVQLVESAGGLVQAGGSLRLSCAASGYIFSDNTMGWYRQAPGKERELVAVITSGTSTSYADSVKGRFTISRDNAKNTVYLQMNSLKPEDSAVYYAARTGQYKTYGEYDYWGQGTQVTVSS" : polyreactivity (PSR sort gate) is low polyreactivity

Summary for this sequence, "QVQLVESGGGLDQAGGSLRLSCAASGRNFTRYAMGWYRQAPGKERELVAVITRSGGSTYYADSVKGRFTISRDNAKNTVYLQMNSVKPEDTAVYYCDAKYYGEMYYWGQRTQVTVSS" : polyreactivity (PSR sort gate) is low polyreactivity

---

assay: yeast display, Sf9 membrane polyspecificity reagent, FACS + sequencing; frameworks hold sequencing errors
measured attribute: polyreactivity (PSR sort gate)

The cases that follow already have their polyreactivity (PSR sort gate) on record.
[[record]]
primary_sequence = "QVQLVESGGGLVQAGGSLRLSCAASGSTFPTYAMGWYRQAPGKERELVAAISRSGGRTYYADSVKGRFTISRDNAKNTVYLQMNSLKPEDTAVYYCAAQYRLSGGYNYDYWGQGTQVTVSS"
measured_attribute = "polyreactivity (PSR sort gate)"
recorded_value = "high polyreactivity"

[[record]]
primary_sequence = "QVQLVESRGGLVQAGGSLRLSCAASGSIFWLYAMGLYRQAPGKERELVAAIDSGDSTKYADSVKGRFTISRDNAKNTVYLQMNSLKREDTAVYYCNASRRYHVLAPYDYWGQGTQVTVSS"
measured_attribute = "polyreactivity (PSR sort gate)"
recorded_value = "low polyreactivity"

[[record]]
primary_sequence = "QVQLVETGGGLVQAGGSLRLSCAASGRTFRAYAMGWYRQAPGKEMELVAAITSGGSTKYADSVNGRFTISRDNAKNTVYLQMTRLKPEDTAVYYCAATLALESYIYDYWGQGTQVTVSS"
measured_attribute = "polyreactivity (PSR sort gate)"
recorded_value = "high polyreactivity"

[[record]]
primary_sequence = "QVQLVESGGGLVQAGGSLRLSCAASGITFKYYVMGWYRQAPGKEREFVAAISWGGGSTYYADSVKGRFTISRDNAKNTVYLQMNSLKPEDTAVYYCAARKGYYTHVQIGYRQSMDYWGQGTQVTVSS"
measured_attribute = "polyreactivity (PSR sort gate)"
recorded_value = "high polyreactivity"

[[record]]
primary_sequence = "QVQLVESGGGLVQAGASLRLSCAASGRTFAYNAMGWSRQAPGKERELVATISNGGTTNYADSVKGRFTISRDNAKNTVYLQMNSLKPEDTAVYYCNRRSYTQVLMDYWGQGTQVTVSS"
measured_attribute = "polyreactivity (PSR sort gate)"
recorded_value = "high polyreactivity"

[[record]]
primary_sequence = "QVQLVESGGGLVQAGGSLRLSCAASGFTFDRYAMGWYRQAPGKERELVAAISRSGASTYYADSVKGRFTISRDNAKNTVYLQMNSLKPDDTAVYYCAAKQRTKGDYWGQGTQVTVSS"
measured_attribute = "polyreactivity (PSR sort gate)"
recorded_value = "high polyreactivity"

[[record]]
primary_sequence = "QVQLVESGGGLVQAGGSLRLSCAASGFTFPAYTMGWYRQAPGKERELVSAITSSGGNTYYADSVKGRFTISRDNAKNTVYLQMNSLKPEDTAVYYCSTVSVRGPSYDHVRYDYWGQGTQVTVSS"
measured_attribute = "polyreactivity (PSR sort gate)"
recorded_value = "low polyreactivity"


Please turn your attention to the following entry.
Summary for this sequence, "QVQLVESGGGLVQAGGSLRLSCAASGITFPVYTMGWYRPAPVKERELVAAITSSGGSTYYADSVKGRFTISRDNAKNTVYLQMISLKQEDTAVYYCAARDYGRHHSYGYWGQGTQVTVSS" : polyreactivity (PSR sort gate) is high polyreactivity

---

assay: yeast display, Sf9 membrane polyspecificity reagent, FACS + sequencing; frameworks hold sequencing errors
measured attribute: polyreactivity (PSR sort gate)

[[record]]
primary_sequence = "QVQLVESGGGLVQAGGSLRLSCAASGSIFIYNARGWYRQAPGKERELVAAINWTGGSTYYADSVKGRFTISRDNAKNTVYLQMNSLKPEDTAVYYCNALRYGSTRGYDYWGQGTQVTVSS"
recorded_value = "high polyreactivity"

[[record]]
primary_sequence = "QVQIVESGGGLVQAGGSLRLSCAASGGTFLPYAMGSYRQAPGKERELVATITLIGDSTYYADSVKGRFTISRDNAKNTVYLQMNSLKPEDTAVYYCAARPVTSYAYGSWGQGSQVTVSS"
recorded_value = "low polyreactivity"

[[record]]
primary_sequence = "QVQLVESGGGLVQAGGSLRLSCAASGFTFGRYAMGWYRQAPGKERELVAGISSGGRTNYADSVKGRFTISRDNAKNTVYLQMNSLKPEDTAVYYCNARWYRYPPRVRLYYWGQGTQVTVSS"
recorded_value = "high polyreactivity"

[[record]]
primary_sequence = "QVQLVESGGGLVQAGGSLRLSCAASGSIFFGNAMGWYRQAPGKERELVAASTTSGGSTYYADSVKGRFTISRDNAKNTVYLQMNSLKPEDTAVYYCNAEYRTGVDGPRSRGGDYWGQGTQVTVSS"
recorded_value = "low polyreactivity"

[[record]]
primary_sequence = "QVQLVESGGGLVQAGGSLRLSCAASGNNFRSYAMGWYRQATGKERELVAAISGRGGSTYYADSVKGRFTISRDNAKNTVYLQMNSLKPEDTAVYYCAAESRRVNYANDYWGQGTQVTVSS"
recorded_value = "high polyreactivity"


Summary for this sequence, "QVQLVESGGGLVQAGGSLRLSCAASGSTIGPNAMGSYRQAPGKERELVAAIRSNGGRTYYADSVKGRFTISRDNAKNTVYLQMNSLKPEDTAVYYCAAPHYPYDTPYGYWGQGTQVTVSS" : polyreactivity (PSR sort gate) is low polyreactivity

Summary for this sequence, "QVQLVESGGGLVQAGGSLRLSCAASGRTFFPYAMGWYRQAPGKEREFVAAITKTDDSTYYADSVKGRFTISRDNAKNTVYLQMNSLKPEDTAVYYCAADTSRSVSVFIVWYWLGYWGQGTQVTVSS" : polyreactivity (PSR sort gate) is low polyreactivity

Summary for this sequence, "QVQLVESGGGLVQAGGSLRLSCAASGSIFAPYAMGWYRQAPGKERELVAAISRSGGSTYYADSVKGRFTISRDNAKNTVYLQMNSLKPEDTAVYYCAVRNGLRQYRLDYWGQGTQVTVSS" : polyreactivity (PSR sort gate) is high polyreactivity
